Assay: Acute toxicity in ip dosed ICR mouse assessed as maximum tolerated dose
Type: organism-based
Details: in vivo
Form field: MTD (one value per entry).

C[C@H]1CCC/C=C/[C@@H]2C[C@H](OC(=O)OCc3cccnc3)C[C@H]2[C@H](O)/C=C/C(=O)O1: > 100 mg/kg

Field: next molecule
INPUT: Endpoint output: MTD of C[C@H]1CCC/C=C/[C@@H]2C[C@H](O)C[C@H]2[C@H](O)/C=C/C(=O)O1 . Value?
OUTPUT: < 50 mg/kg

###

Assay: Solubility of the compound in saline/PEG400 (95/5% V/V) at pH 7.4
Assay type: physicochemical
ENDPOINT NAME: solubility

Please review the following examples before continuing.
C[C@H]1CCC/C=C/[C@@H]2C[C@H](OC(=O)c3cccnc3)C[C@H]2[C@H](O)/C=C/C(=O)O1: < 1000 µg/mL
C[C@H]1CCC/C=C/[C@@H]2C[C@H](O)C[C@H]2[C@H](O)/C=C/C(=O)O1: < 1000 µg/mL

Below: the item to evaluate.
INPUT: Recorded solubility of C[C@H]1CCC/C=C/[C@@H]2C[C@H](OC(=O)OCc3cccnc3)C[C@H]2[C@H](O)/C=C/C(=O)O1 , please.
OUTPUT: < 1000 µg/mL

###

Test: Acute toxicity in po dosed ICR mouse assessed as maximum tolerated dose
Format: organism-based
Conditions: in vivo
Listed compounds paired with reported MTD

C[C@H]1CCC/C=C/[C@@H]2C[C@H](O)C[C@H]2[C@H](O)/C=C/C(=O)O1: < 506 mg/kg

Here is the next item to consider.
INPUT: Query: MTD; subject: C[C@H]1CCC/C=C/[C@@H]2C[C@H](OC(=O)OCc3cccnc3)C[C@H]2[C@H](O)/C=C/C(=O)O1
OUTPUT: > 750 mg/kg

###

Experiment: Solubility of the compound in 0.9% NaCl at pH 7.4
Type: physicochemical
ENDPOINT NAME: solubility

The examples below pair each entry with its known result.
C[C@H]1CCC/C=C/[C@@H]2C[C@H](OC(=O)c3cccnc3)C[C@H]2[C@H](O)/C=C/C(=O)O1: < 1000 µg/mL
C[C@H]1CCC/C=C/[C@@H]2C[C@H](OC(=O)OCc3cccnc3)C[C@H]2[C@H](O)/C=C/C(=O)O1: < 1000 µg/mL

INPUT: Item C[C@H]1CCC/C=C/[C@@H]2C[C@H](O)C[C@H]2[C@H](O)/C=C/C(=O)O1 [BREFELDIN A] has what recorded solubility?
OUTPUT: < 1000 µg/mL

###

Here, each record is paired with measured solubility data.
Assay: Solubility of the compound in saline/DMSO/solutol HS-15 (85/5/10% V/V/V) at pH 7.4
Type: physicochemical
Provide only the numeric value, understood in µg/mL.

Known solubility results, listed for orientation:
C[C@H]1CCC/C=C/[C@@H]2C[C@H](OC(=O)OCc3cccnc3)C[C@H]2[C@H](O)/C=C/C(=O)O1: 15000
C[C@H]1CCC/C=C/[C@@H]2C[C@H](O)C[C@H]2[C@H](O)/C=C/C(=O)O1: 1000

INPUT: Which solubility reading was recorded for the compound C[C@H]1CCC/C=C/[C@@H]2C[C@H](OC(=O)c3cccnc3)C[C@H]2[C@H](O)/C=C/C(=O)O1 ?
OUTPUT: 3000
